Target: MAL^TIR (Homo sapiens, UniProt P58753)
Construct: MAL (residues 79–221); 6xHis; made in house; host or cells: E. coli BL21 (DE3)
Sequence (P58753 79-221): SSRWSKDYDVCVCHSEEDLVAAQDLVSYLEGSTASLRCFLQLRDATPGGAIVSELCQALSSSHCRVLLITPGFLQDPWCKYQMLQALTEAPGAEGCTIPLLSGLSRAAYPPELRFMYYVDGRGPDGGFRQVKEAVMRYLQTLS
Assay: T‐Surf phage library (P8 and P3) selection against MAL^TIR, four rounds, NGS read counts
Assay type: binding
Conditions: P3 library, selection against MAL, rank by count before grouping
# P3_MAL Rank (before) values compiled below
RESULT_TYPE: P3_MAL Rank (before)

| POLYMER_SEQUENCE | NUMERIC_READOUT |
| --- | --- |
| KERPFGAQRAEKWRA | 3610 |
| RLLKWWDSLTQASNI | 2485 |
| RGFLNHLHHHLQPNDH | 2351 |
| RLQECKEALHQFHSWV | 2549 |
| SSFREGLWRLLALSTN | 3142 |
| AFFWEQLRPALKERLP | 1787 |
| YAFTGHLQRYLVQRGE | 1435 |
| KIWGWRDALSRNPH | 3640 |
| VEPTQVRKQSGAVENATG | 1673 |
| LKWGDPYFWSNCVMR | 2216 |
| DWFLSKLSQHLLKRAK | 1882 |
| NGYGSELIKEIVDTGV | 3249 |
| YAFPFHLFSCPELRGV | 1345 |
| RLLKWKEALHHVLQK | 2502 |
| GPDTRRKFISFLYKEL | 1767 |
| VEPTQVRKQSGAVEM | 1671 |
| NQWRDPLTGDMILSGW | 3336 |
| SSLREGLLRLQELSKK | 3205 |
| YAFTGHVPGYLVQRGV | 1361 |
| WHFHLRLRMHDLLQNI | 1300 |
| FLNFRGLVVRNYFLVH | 1146 |
| DWFLSKLSQHILRHEK | 1886 |
| LVVQENLKQLLLFGGL | 2091 |
| YAFTGHLHHIWCSVA | 1430 |
| HQTFWDRLCAKLKAPI | 2898 |
| LVAHEISKKMNIFATV | 2101 |
| KMQQWQDALYEAANLS | 3654 |
| LKVESWLQTLAKAGKL | 2262 |
| LKEESWRQAQEKAGKL | 2310 |
| PNLLTKVLHYLMRTKT | 2667 |
| YAFTGHLHRYLVQRRS | 1408 |
| VEPTQVRKLRGAVEKV | 1658 |
| NNLFNELVSKNIRTFT | 3480 |
| RYIMPHPQVLSQKKQQ | 2329 |
| RLRKWKGALHHFLSWG | 2544 |
| GGFLSHLFDAFSVSR | 1758 |
| NDVEGCRDALTKVASL | 3278 |
| LGFLRHLRHHLQAKDH | 2082 |
| RGFLSHLHHALRLNKIEAF | 2390 |
| YLNSGYPWRYDRLRFA | 1498 |
| FLNFRAWMCVTIFWA | 1176 |
| SLRKKLVRNLIEEFKR | 3100 |
| KSILDTEARIWAGVR | 3728 |
| RGFLCHLRHHLQATDH | 2352 |
| RFWERPRYLTPSNNHR | 2322 |
| VEPTQVRTQSGAAENA | 1651 |
| RGFLSHLRHHLQVKEQ | 2370 |
| YAFTGHLERHEVQRGV | 1367 |
| RVFLSHPRHHLQAKDP | 2346 |
| YAFTRHLHRYLVHRGV | 1466 |
| RAFVAHPQELIQKKQQ | 2454 |
| YAFTGHLHRYLMPRGV | 1420 |
| SSFREGLWRPPELSEK | 3167 |
